- Tested on: SF-268 CNS
- EXPERIMENTAL DETAILS: NCI tumour cell line growth inhibition, 48 h; in the data active = GI50 below about 0.43 µM; inactive = the rest
Answer with one of the outcomes active, inactive

Reference set, count: 5
COc1ccc(C(=O)/C=C/c2ccc(OCc3cccc(C(F)(F)F)c3)c(OC)c2)cc1OC : inactive
Cc1[nH]nc(C(F)(F)F)c1Cc1sc2c(c1C(=O)N1C[C@](C)(O)CO1)c(=O)n(C)c(=O)n2C(C)C : inactive
CC1Cc2c(Cl)ncnc2N(C)c2ccccc21 (stereo unspecified) : inactive
Nc1nc(-c2ccc3c(c2)/C(=C\c2cc(Br)c(O)c(Br)c2)C(=O)N3)cs1 : inactive
O=C(Nc1nc2c(C(F)(F)F)cccc2s1)c1cc(Cl)ccc1O : active

Which result was noted for this compound in the test: O=C1/C=C/[C@@H](O)[C@@H]2C[C@@H](O)C[C@H]2/C=C/CCC[C@H](CCO)O1
active

# fetch the recorded call for CCCCCCCCN(CCCCCCCC)CC(O)c1cc(-c2ccccc2)nc2ccc(OC)cc12 (stereo unspecified) here
inactive

Just curious, what result did CCC(=O)NC1=C(Cl)C(=O)C(NC(=O)CC)=C(Cl)C1=O get here?
inactive

====

- Test system: SK-OV-3 ovarian
- EXPERIMENTAL DETAILS: NCI tumour cell line growth inhibition, 48 h; in the data active = GI50 below about 0.43 µM; inactive = the rest
Outcomes you can answer with include only these: TRUE for active, FALSE for inactive

Completed entries (count: 8):
c1ccc2c(N=NSc3ncnc4nc[nH]c34)c3ccccc3nc2c1 : FALSE
CC(C)(C)NCC(O)c1ccccc1Cl (centres undefined) : FALSE
CC1=CC(C)=N/C(=N/S(=O)(=O)c2cc(C)c(Cl)cc2SCc2ccccc2)NN1 : FALSE
Nc1nc(-c2ccc3c(c2)/C(=C\c2cc(Br)c(O)c(Br)c2)C(=O)N3)cs1 : FALSE
COC(=O)Nc1nc2ccc(C(=O)c3cccc(I)c3)cc2[nH]1 : TRUE
CCN(CC)CCOc1nc2ccccc2c2c1-c1ccc(OC)cc1C2=O : FALSE
O=C(Nc1ccc(Cl)c(Cl)c1)c1ccc(NC2=C(Cl)C(=O)N(Cc3ccccc3)C2=O)cc1 : FALSE
CC(=O)C1=C(C)N(Cc2ccccc2)C2(O)C=CC(=O)C3=C(O)c4ccccc4C(=O)C312 (centres undefined) : FALSE

Hi, do you know how CCC(=O)NC1=C(Cl)C(=O)C(NC(=O)CC)=C(Cl)C1=O came out in this test?
FALSE

How was CC(C)[C@@H](C(=O)O[C@@H]1/C=C/C(=O)O[C@@H](C)CCC/C=C/[C@@H]2C[C@H](O)C[C@H]21)N(C)C classified in this test?
FALSE

Hi, do you know how NC1CC(=O)c2c(-c3cccs3)sc(-c3cccs3)c21 (centres undefined) came out in this test?
FALSE

Write down the call the test reported for this compound. Item: CN1CCN(Cc2ccc(NC(=O)c3cncc(C#Cc4ccc(N)nc4)c3)cc2C(F)(F)F)CC1
FALSE

Recorded call for O=C1/C=C/[C@@H](O)[C@@H]2C[C@@H](O)C[C@H]2/C=C/CCC[C@H](CCO)O1 ?
TRUE

Please indicate how the test categorized COc1nn(C)cc1Nc1nccc(-c2c[nH]c3c(NC(=O)[C@@H](C)N4CCN(C)CC4)cccc23)n1 .
FALSE

Check the results log: what was the call for CC(=O)/C=C(/C)[O-].CC(=O)/C=C(/C)[O-].CC(=O)[CH-]C(C)=O.CC(=O)[CH-]C(C)=O.[Zr+4] ?
FALSE

====

- System: A549 NSCLC
- EXPERIMENTAL DETAILS: NCI tumour cell line growth inhibition, 48 h
QUANTITY KIND: TGI

CN(C)C(=O)N1N[C@H](c2ccccc2)[C@@H]1c1ccccc1 : > 100 µM

Count: 4. Required value per item: TGI.
1. CC1=CC2(C)/C=C(C)/C=C\CC(O)/C=C3/C=CC(=C4C(=O)OC2(CC1C)C4=O)OC3 (stereo not given)
2. O=C(CC12C3C4C1C1C2C3C41CC(=O)NO)NO (stereo not given)
3. C[C@@H]1CC[C@@H]2[C@@H]1[C@H](OC(=O)/C=C/C1CCCCC1)[C@]1(C3CCCCC3)C[C@@H](OC(=O)CO)[C@@]2(C)O1
4. N#C/C(=C\c1ccc[nH]1)c1cc(-c2ccc(Cl)cc2)nn1-c1ccccc1

16.8 µM
> 100 µM
27.1 µM
> 64.7 µM

Each molecule below has a reported value. Please supply its TGI.
1. Cc1nc(N)c(N2CCN(S(=O)(=O)N(Cc3ccccc3)Cc3ccccc3)CC2)c(=O)[nH]1
2. COc1cc2nc(-c3cccs3)nc(N3CCN(c4ccccc4)CC3)c2cc1OC
3. C1=CC2C(C3CN(c4ccccc4)N=C13)C1C3C4C=CC21C=CC43 (stereo not given)
4. CCOC(=O)c1sc2nc(SC)nc3c2c1NCN3C

1. > 100 µM
2. > 100 µM
3. > 100 µM
4. > 100 µM

Please state, for each entry, its recorded TGI.
1. CCn1c(CCCc2nc3c([nH]2)c(=O)n(C)c(=O)n3C)nc2c1c(=O)n(C)c(=O)n2C
2. C=C(C)C1(Sc2ccc(OC)cc2)CC1
3. CCCCCCCCCCCC(=O)N(CCCCCCCCC)CC(O)C(O)C(OC1OC(CO)C(O)C(O)C1O)C(O)CO (stereo not given)
4. CCO/C=C\C12CCCC1NC(c1ccccc1)(c1ccccc1)O2 (stereo not given)
5. O=C(CC(=O)N1N=C(c2ccccc2)C(N=Nc2ccc(S(=O)(=O)CCOS(=O)(=O)O)cc2)C1=O)Nc1ccc(Cl)cc1 (stereo not given)

1: > 100 µM; 2: > 100 µM; 3: 43.5 µM; 4: > 100 µM; 5: > 100 µM

Batch of 3 molecules: report TGI for each.
1. OC(CCN1CCN(CCOC(c2ccccc2)c2ccccc2)CC1)c1ccccc1 (stereo not given)
2. CCCCCCCCCCCCCCNCC(OC)OC
3. Cc1cc(C)[n+]2c(c1)C=CC2

> 100 µM
35.3 µM
> 100 µM

====

- Test system: CAKI-1 renal
- EXPERIMENTAL DETAILS: NCI tumour cell line growth inhibition, 48 h
Kindly supply the reported TGI values for the records listed here.

CCCCCCCCCCCC(=O)N(CCCCCCCCC)CC(O)C(O)C(OC1OC(CO)C(O)C(O)C1O)C(O)CO (centres undefined) : 35.5 µM
N#Cc1ccc(-c2ccc(Cl)cc2)n(C2OC(CO)C(O)C(O)C2O)c1=S (centres undefined) : > 100 µM
CN1CCN(Cc2ccc(NC(=O)c3cncc(C#Cc4ccc(N)nc4)c3)cc2C(F)(F)F)CC1 : 2.09 µM
COc1cc2c(cc1OCC(=O)Nc1ccc(Cl)cc1C(=O)c1ccccc1Cl)N=CC1CCCN1C2=O (centres undefined) : 28.3 µM
CCOC(=O)c1nc2ccccc2nc1Nc1ccc(C(=O)OC)s1 : > 100 µM
N=C1C=CC(=C(c2ccc(N)cc2)c2ccc(N)cc2)C=C1 : 58.1 µM

Can you give me TGI for all of these, one by one?
1. Cc1ccsc1C(NC(=O)c1ccccc1)c1cc(Cl)c2cccnc2c1O (centres undefined)
2. COc1cccc(N2CC(O)=C(c3nc4ccccc4s3)C2=N)c1
3. COC1C(O)C(C)OC(O[C@H]2CC[C@@]3(C)C(CC[C@@H]4[C@@H]3CC[C@]3(C)[C@@H](C(C)OC5OC(CO)C(O)C(O)C5O)CC[C@]43O)C2)C1O (some centres undefined)
4. O=C(O)C(Cc1ccccc1)Cc1ccccc1

1. 14.9 µM
2. > 100 µM
3. > 25 µM
4. > 100 µM

Required: TGI, one value per molecule below.
1. Cc1ccc(/C=c2\c(=O)[nH]c3nc4ccccc4c(=O)n23)cc1
2. C/C(=N\N=C(N)N)C(CN1CCOCC1)C(c1ccccc1)c1c(O)c2ccccc2oc1=O (centres undefined)
3. NS(=O)(=O)c1ccc(-n2nc3c(c2-c2cccs2)Cc2ccccc2-3)cc1
4. CCCCCc1cc2cc3c(c(O)c2c(=O)[nH]1)C1(CCC3)C(=O)c2c(O)ccc(O)c2C1=O

> 100 µM
> 100 µM
22.7 µM
> 100 µM

Batch lookup, TGI per entry.
1. Cc1ccc(/C=C2\CCCCC2=O)cc1
2. CC1(C)OCC2OC(n3cnc4c(N)nc(Cl)nc43)C(OS(C)(=O)=O)C2O1 (centres undefined)
3. OCc1ccc2c(c1)CC1(Cc3ccccc3C1)C2
4. Cc1ccc(C)n1-c1ccccc1C1C=Cn2c(=O)oc3c(OC(C)C)c(OC(C)C)c(O)c1c32 (centres undefined)
5. COc1ccc(C(C2=C(O)CC(C)OC2=O)C2=C(O)CC(C)OC2=O)cc1 (centres undefined)

1: > 100 µM; 2: > 100 µM; 3: 50.5 µM; 4: > 100 µM; 5: > 100 µM

====

- System: U251 CNS
- EXPERIMENTAL DETAILS: NCI tumour cell line growth inhibition, 48 h
Can you tell me TGI for the items I'm about to list?

Provide TGI for all items below, preserving their order.
1. [N-]=[N+]=Nc1cc(=O)[nH]c2ccccc12
2. CC(=O)C1=C(C)N(Cc2ccccc2)C2(O)C=CC(=O)C3=C(O)c4ccccc4C(=O)C312 (stereo unspecified)

> 100 µM
10.2 µM

Please supply TGI for each of the following items, keeping them in order.
1. Oc1ccc(-c2nc3cc(C(F)(F)F)ccc3s2)cc1
2. N=c1ncn(C/C=C/c2ccccc2)c2nc[nH]c12
3. CSc1nnnc2ccccc12
4. O=C1Sc2ccccc2C(=O)N2CCSC12 (stereo unspecified)

1: 30.5 µM; 2: > 100 µM; 3: > 100 µM; 4: > 100 µM
